Origin of values: patent US20190127480A1

biological target: T1, Soluble heterodimeric CD3 protein (hCD3-epsilon/hCD3-delta) with either a human Fc tag (hFcΔAdp/hFc) or a … (human, UniProt P07766 23-126; P04234 22-105); test: SPR Biacore 25C antigen-capture
T1 construct: also called hCD3ε/δ; not shown: Fc tag: human (hFcΔAdp/hFc)
T1 sequence (P07766 23-126 limits assumed, stated change not applied, chain 1 of 2): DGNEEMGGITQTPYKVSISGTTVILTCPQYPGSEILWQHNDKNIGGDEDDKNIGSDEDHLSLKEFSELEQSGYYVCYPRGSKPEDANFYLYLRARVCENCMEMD
T1 sequence (P04234 22-105 limits assumed, stated change not applied, chain 2 of 2): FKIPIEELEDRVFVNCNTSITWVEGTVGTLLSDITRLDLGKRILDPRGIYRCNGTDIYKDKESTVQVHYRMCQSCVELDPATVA
Listed here: items and their measured pKd.
Remember the convention: pKd equals -log10 of concentration in molar.

// below: answered binders
binder	value
H1H5793B (antibody, human IgG1, V domains shown, H1H: human IgG1 Fc; divalent) VH: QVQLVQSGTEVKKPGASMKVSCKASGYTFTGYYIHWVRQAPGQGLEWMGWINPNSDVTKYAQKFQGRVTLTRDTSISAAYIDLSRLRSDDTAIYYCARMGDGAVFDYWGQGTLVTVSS VL: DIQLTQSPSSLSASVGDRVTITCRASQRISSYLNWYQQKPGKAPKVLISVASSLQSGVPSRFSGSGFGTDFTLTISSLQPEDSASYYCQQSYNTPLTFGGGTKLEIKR	9.48
H1H5791B (antibody, human IgG1, V domains shown, H1H: human IgG1 Fc; divalent) VH: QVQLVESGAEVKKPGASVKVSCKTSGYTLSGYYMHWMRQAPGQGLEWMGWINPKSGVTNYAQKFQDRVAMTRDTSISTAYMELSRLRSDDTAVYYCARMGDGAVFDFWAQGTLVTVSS VL: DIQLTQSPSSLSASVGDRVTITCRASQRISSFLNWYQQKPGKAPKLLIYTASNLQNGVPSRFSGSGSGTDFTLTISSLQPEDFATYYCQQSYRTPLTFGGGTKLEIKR	9.36
H2M2885N (antibody, mouse IgG2, V domains shown, H2M: mouse IgG2 Fc, human variable regions; divalent) VH: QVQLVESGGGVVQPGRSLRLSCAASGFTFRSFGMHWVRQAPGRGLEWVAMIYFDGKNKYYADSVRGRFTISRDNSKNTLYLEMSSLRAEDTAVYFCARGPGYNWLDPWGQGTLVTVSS VL: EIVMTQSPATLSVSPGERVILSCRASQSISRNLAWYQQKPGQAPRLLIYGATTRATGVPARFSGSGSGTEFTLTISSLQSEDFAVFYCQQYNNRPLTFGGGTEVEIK	9.95

pKd lookup needed for H1H5756B (antibody, human IgG1, V domains shown, H1H: human IgG1 Fc; divalent) VH: EVQLVESGGGVVQPGRSLRLSCTASGFPFSRYGMHWVRQAPGKGLEWVTFIWYDGSNKYYADSAKGRFTITRDNSKNTVYLQMDSLRADDTAVYYCVRDQAALYYFDSWGQGTLVTVSS VL: DIQMTQSPSSVSASVGDRVTITCRASQGISRWLAWYQQKPGKAPKLLISAASSLQSGVPSRFSGSGSGTDFTLTISGLQPEDFATYYCQKANSFPFTFGPGTKLEIKR , thanks. 9.12

pKd lookup needed for H1H5799P (antibody, human IgG1, V domains shown, H1H: human IgG1 Fc; divalent) VH: QVQLVQSGAEVKKPGASVKVSCKASGYTFIGYYMHWVRQAPGQGLEWMGWINPKSGGTNYAQKFQGRVTMTGDTSISTAYMELSRLRSDDTAVFYCARMGDGAMFDYWGQGTLVTVSS VL: DIQMTQSPSSLSASVGDRVTITCRASQRISSYLNWYQQKAGKAPKVLIYTASSLQSGVPSRFSGSGSGTDFTLTISSLQPEDFATYYCQQSYSTPLTFGGGTKVEIK , thanks. 8.11

pKd lookup needed for H1H2712N (antibody, human IgG1, V domains shown, H1H: human IgG1 Fc; divalent) VH: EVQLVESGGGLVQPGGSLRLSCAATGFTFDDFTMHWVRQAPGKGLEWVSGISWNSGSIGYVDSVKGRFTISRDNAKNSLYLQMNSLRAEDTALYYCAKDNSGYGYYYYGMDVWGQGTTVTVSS VL: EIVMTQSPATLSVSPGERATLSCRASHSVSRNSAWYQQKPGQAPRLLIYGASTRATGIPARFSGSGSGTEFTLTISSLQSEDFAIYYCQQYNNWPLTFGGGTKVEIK , thanks. 9.01

pKd lookup needed for H1H5788P (antibody, V domains shown, H1H: human IgG1 Fc; divalent) VH: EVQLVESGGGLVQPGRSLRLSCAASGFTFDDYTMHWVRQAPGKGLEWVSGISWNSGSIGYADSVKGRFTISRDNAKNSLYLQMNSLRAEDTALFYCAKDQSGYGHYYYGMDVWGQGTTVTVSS VL: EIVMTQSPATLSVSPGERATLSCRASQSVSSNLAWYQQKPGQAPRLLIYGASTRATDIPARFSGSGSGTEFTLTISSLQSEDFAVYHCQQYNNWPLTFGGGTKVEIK , thanks. 8.63

pKd lookup needed for H2M2862N (antibody, mouse IgG2, V domains shown, H2M: mouse IgG2 Fc, human variable regions; divalent) VH: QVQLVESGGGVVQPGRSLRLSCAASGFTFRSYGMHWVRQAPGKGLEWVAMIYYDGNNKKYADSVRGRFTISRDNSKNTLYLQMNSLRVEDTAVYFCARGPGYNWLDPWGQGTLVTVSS VL: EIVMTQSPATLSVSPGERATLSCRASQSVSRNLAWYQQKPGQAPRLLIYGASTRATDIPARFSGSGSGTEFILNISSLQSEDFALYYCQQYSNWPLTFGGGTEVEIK , thanks. 9.27

pKd lookup needed for H1H5764P (antibody, human IgG1, V domains shown, H1H: human IgG1 Fc; divalent) VH: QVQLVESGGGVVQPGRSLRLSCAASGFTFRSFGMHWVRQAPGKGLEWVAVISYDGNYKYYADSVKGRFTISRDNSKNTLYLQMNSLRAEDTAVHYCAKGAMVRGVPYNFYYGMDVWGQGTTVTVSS VL: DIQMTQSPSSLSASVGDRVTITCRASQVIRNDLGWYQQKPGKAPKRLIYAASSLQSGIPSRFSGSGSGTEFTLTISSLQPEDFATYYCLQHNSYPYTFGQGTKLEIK , thanks. 7.68

pKd lookup needed for H1H5755B (antibody, human IgG1, V domains shown, H1H: human IgG1 Fc; divalent) VH: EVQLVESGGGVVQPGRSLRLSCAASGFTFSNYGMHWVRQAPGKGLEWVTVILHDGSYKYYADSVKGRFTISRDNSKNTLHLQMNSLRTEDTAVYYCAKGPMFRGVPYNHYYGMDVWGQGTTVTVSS VL: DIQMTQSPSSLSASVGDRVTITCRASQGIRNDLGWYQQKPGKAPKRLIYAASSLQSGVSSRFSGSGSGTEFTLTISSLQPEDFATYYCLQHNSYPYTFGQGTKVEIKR , thanks. 9.03
